Data provenance is patent US9850343B2.

- assay.protocol: Acid dissociation constant (pKa) in aqueous sulfonic acid solution
- Assay type: physicochemical
- condition: aqueous sulfonic acid solution titrated at 25° C. with aqueous sodium hydroxide; from pH at 50% neutralization

smiles.code: CCS(=O)(=O)O
pKa: -1.3
//
smiles.code: CCCCCCCCCCCCS(=O)(=O)O
pKa: 0.3
